Origin of the recorded values: ChEMBL document CHEMBL1127427

Assay: Compound was evaluated for oxidation rate constant in liver homogenate
Type: ADME, tissue-based
Conditions: tissue homogenate
Please note: class 1 applies when k is 0.02 min⁻¹ or greater, and class 0 applies otherwise.

Examples from the recorded data:
SMI: CC(C)N1C=CCC(C(=O)O[C@H]2CC[C@H]3[C@@H]4CCc5cc(O)ccc5[C@H]4CC[C@]23C)=C1
CLASS NAME: class 1
--
SMI: CN1C=CCC(C(=O)O[C@H]2CC[C@H]3[C@@H]4CCc5cc(O)ccc5[C@H]4CC[C@]23C)=C1
CLASS NAME: class 1
--
SMI: C[C@]12CC[C@@H]3c4ccc(O)cc4CC[C@H]3[C@@H]1CC[C@@H]2OC(=O)C1=CN(CC2CC2)C=CC1
CLASS NAME: class 0

Shift focus to the following entry.
Form field: k at least 0.02 min⁻¹? Entry: "C[C@]12CC[C@@H]3c4ccc(O)cc4CC[C@H]3[C@@H]1CC[C@@H]2OC(=O)C1=CN(Cc2ccccc2)C=CC1"
class 0
